Species: Rattus norvegicus
run_description: Open TG-GATES - Regimen: Daily Repeat
Format: toxicity, organism-based, Sprague-Dawley
Design: regimen Daily Repeat, gender Male, age 6 weeks
particulars: in vivo, po, 0 mg/kg, 72 h, tissue Plasma, route gavage, dose level Control, time 3 day
Can you tell me Ca for the items I'm about to list?
Enter your answer as a number in mg/dL; do not include the unit.

## Input Which Ca is reported for this compound? O=C(O)COc1nn(Cc2ccccc2)c2ccccc12 [BENDAZAC]
## Output 10.9

## Input Name the reported Ca value associated with the compound CC[C@@H](CO)NCCN[C@@H](CC)CO [ETHAMBUTOL]
## Output 10.9

## Input Item CC(N)=O [ACETAMIDE] has what recorded Ca?
## Output 10.7

## Input // lookup Ca for CC(=O)Nc1ccc2c(c1)Cc1ccccc1-2 [2-ACETYLAMINOFLUORENE]
## Output 11

## Input Return reported Ca; argument: CC(=O)N1CCN(c2ccc(OCC3COC(Cn4ccnc4)(c4ccc(Cl)cc4Cl)O3)cc2)CC1 (configuration not stated) [KETOCONAZOLE]
## Output 10.8

## Input Would you mind telling me what Ca value was observed for CCN(CC)N=O [N-NITROSODIETHYLAMINE] ?
## Output 10.8

## Input Fill in the blank: the reported Ca of CC(C)Cc1ccc(C(C)C(=O)O)cc1 (configuration not stated) [IBUPROFEN] is ____.
## Output 11

====

Species: Rattus norvegicus
run_description: Open TG-GATES - Regimen: Daily Repeat
Type: toxicity, organism-based, Sprague-Dawley
Parameters: regimen Daily Repeat, gender Male, age 6 weeks
particulars: in vivo, po, 0 mg/kg, 72 h, tissue Plasma, route gavage, dose level Control, time 3 day
measure: Na (meq/L)
Respond with the bare value in meq/L.

## Input // query Na value for entry CC(C)Cc1ccc(C(C)C(=O)O)cc1 (stereo not drawn)
## Output 141.4

## Input I would be grateful if you could share the reported Na for CC[C@@H](CO)NCCN[C@@H](CC)CO .
## Output 140.2

## Input Consider the molecule CC(=O)Nc1ccc2c(c1)Cc1ccccc1-2 and give its measured Na.
## Output 141.2

## Input Bench note: what Na did CC(CCc1ccccc1)NCC(O)c1ccc(O)c(C(N)=O)c1 (stereo not drawn) show?
## Output 143.4

## Input Bench note: what Na did CC(N)=O [ACETAMIDE] show?
## Output 140.9

## Input What Na value was documented for this molecule, CCN(CC)N=O ?
## Output 140.2

## Input Give the measured Na of O=C(O)COc1nn(Cc2ccccc2)c2ccccc12 .
## Output 139.8

## Input Quick check: Na of CC(=O)N1CCN(c2ccc(OCC3COC(Cn4ccnc4)(c4ccc(Cl)cc4Cl)O3)cc2)CC1 (stereo not drawn) ?
## Output 140.2

====

Species: Rattus norvegicus
run_description: Open TG-GATES - Regimen: Single
Type: toxicity, organism-based, Sprague-Dawley
Set-up: regimen Single, gender Male, age 6 weeks
particulars: in vivo, po, 0 mg/kg, 24 h, tissue Plasma, route gavage, dose level Control
measure: A/G

## Input I have this compound here, O=C(O)COc1nn(Cc2ccccc2)c2ccccc12 [BENDAZAC] , and I need its recorded A/G.
## Output 2

## Input Would you kindly share the measured A/G for CCN(CC)N=O [N-NITROSODIETHYLAMINE] ?
## Output 1.6

## Input Which value of A/G has been reported for CC[C@@H](CO)NCCN[C@@H](CC)CO [ETHAMBUTOL] in the records?
## Output 1.1

## Input // returns reported A/G for input CC(=O)Nc1ccc2c(c1)Cc1ccccc1-2 [2-ACETYLAMINOFLUORENE]
## Output 1.7

====

Organism: Rattus norvegicus
run_description: Open TG-GATES - Regimen: Daily Repeat
Assay type: toxicity, organism-based, Sprague-Dawley
Set-up: regimen Daily Repeat, gender Male, age 6 weeks
particulars: in vivo, po, 0 mg/kg, […], tissue Blood, route gavage, dose level Control, time 14 day
Would you mind telling me the reported Eos of each entry?
Numbers only; they are read as %.

## Input // lookup Eos for CC[C@@H](CO)NCCN[C@@H](CC)CO [ETHAMBUTOL]
## Output 0.8

## Input What does the data say about its Eos? Entry: CC(=O)Nc1ccc2c(c1)Cc1ccccc1-2 [2-ACETYLAMINOFLUORENE]
## Output 1

## Input Name the recorded Eos for CC(C)Cc1ccc(C(C)C(=O)O)cc1 (stereo not drawn) [IBUPROFEN] .
## Output 0.6

## Input Can you look up the measured Eos of CC(N)=O [ACETAMIDE] for me?
## Output 1

## Input For CC(=O)N1CCN(c2ccc(OCC3COC(Cn4ccnc4)(c4ccc(Cl)cc4Cl)O3)cc2)CC1 (stereo not drawn) [KETOCONAZOLE] , what is its reported Eos?
## Output 0.8

## Input Field request: Eos | item: CC(CCc1ccccc1)NCC(O)c1ccc(O)c(C(N)=O)c1 (stereo not drawn) [LABETALOL]
## Output 1

## Input Eos for CCN(CC)N=O [N-NITROSODIETHYLAMINE] ?
## Output 0.8

## Input For the molecule shown here, O=C(O)COc1nn(Cc2ccccc2)c2ccccc12 [BENDAZAC] , give the reported Eos.
## Output 0.8

====

Species on record: Rattus norvegicus
run_description: Open TG-GATES - Regimen: Single
Assay type: toxicity, organism-based, Sprague-Dawley
Parameters: regimen Single, gender Male, age 6 weeks
particulars: in vivo, po, 0 mg/kg, 9 h, tissue Plasma, route gavage, dose level Control
So I've got a bunch of compounds here, and I need their TG values.
Numbers only; they are read as mg/dL.

## Input I would be grateful if you could share the reported TG for CC(=O)N1CCN(c2ccc(OCC3COC(Cn4ccnc4)(c4ccc(Cl)cc4Cl)O3)cc2)CC1 (configuration not stated) .
## Output 52.6

## Input Please give the measured TG for this compound: CC(CCc1ccccc1)NCC(O)c1ccc(O)c(C(N)=O)c1 (configuration not stated)
## Output 67.6

## Input Need TG, item O=C(O)COc1nn(Cc2ccccc2)c2ccccc12
## Output 44.2

## Input So what does the record say about TG for CC[C@@H](CO)NCCN[C@@H](CC)CO ?
## Output 37.4

## Input # query: TG of entry CCN(CC)N=O
## Output 56.8

## Input Using the record for CC(C)Cc1ccc(C(C)C(=O)O)cc1 (configuration not stated) , report its TG.
## Output 54.4

## Input Dear colleague, I am looking for the recorded TG of the following compound: CC(=O)Nc1ccc2c(c1)Cc1ccccc1-2
## Output 49.2

====

Species: Rattus norvegicus
run_description: Open TG-GATES - Regimen: Single
Format: toxicity, organism-based, Sprague-Dawley
Design: regimen Single, gender Male, age 6 weeks
particulars: in vivo, po, 0 mg/kg, 3 h, tissue Plasma, route gavage, dose level Control
measure: IP (mg/dL)
State the answer as a number, implicitly in mg/dL.

## Input Which IP is listed for CC(=O)N1CCN(c2ccc(OCC3COC(Cn4ccnc4)(c4ccc(Cl)cc4Cl)O3)cc2)CC1 (stereo unspecified) ?
## Output 7.9

## Input Item CCN(CC)N=O has what recorded IP?
## Output 9

## Input Return reported IP; argument: O=C(O)COc1nn(Cc2ccccc2)c2ccccc12
## Output 8.2

## Input Give its IP value. Item: CC(=O)Nc1ccc2c(c1)Cc1ccccc1-2
## Output 9.7

## Input // lookup IP for CC(C)Cc1ccc(C(C)C(=O)O)cc1 (stereo unspecified)
## Output 8.2

## Input Fill in: IP of CC[C@@H](CO)NCCN[C@@H](CC)CO is ___
## Output 8.7

====

Species: Rattus norvegicus
run_description: Open TG-GATES - Regimen: Single
Type: toxicity, organism-based, Sprague-Dawley
Set-up: regimen Single, gender Male, age 6 weeks
particulars: in vivo, po, 0 mg/kg, 9 h, tissue Blood, route gavage, dose level Control
measure: RBC

## Input Please look up its RBC: CCN(CC)N=O [N-NITROSODIETHYLAMINE]
## Output 636 x10_4/ul

## Input What value of RBC has been recorded for this entry: CC(C)Cc1ccc(C(C)C(=O)O)cc1 (configuration not stated) [IBUPROFEN]
## Output 604.6 x10_4/ul

## Input Which RBC reading was recorded for the compound CC(=O)N1CCN(c2ccc(OCC3COC(Cn4ccnc4)(c4ccc(Cl)cc4Cl)O3)cc2)CC1 (configuration not stated) [KETOCONAZOLE] ?
## Output 615.6 x10_4/ul

## Input # query: RBC of entry O=C(O)COc1nn(Cc2ccccc2)c2ccccc12 [BENDAZAC]
## Output 613.4 x10_4/ul

## Input Reported RBC, compound CC(=O)Nc1ccc2c(c1)Cc1ccccc1-2 [2-ACETYLAMINOFLUORENE] : ____
## Output 639.4 x10_4/ul

## Input Any idea what RBC was measured for CC(CCc1ccccc1)NCC(O)c1ccc(O)c(C(N)=O)c1 (configuration not stated) [LABETALOL] ?
## Output 617.2 x10_4/ul

## Input Name the recorded RBC for CC[C@@H](CO)NCCN[C@@H](CC)CO [ETHAMBUTOL] .
## Output 632 x10_4/ul
